Listed next: entries and their corresponding Ratio IC50.
species on record: Mus musculus; assay: Selectivity ratio of IC50 for mouse COX1 to IC50 for mouse COX2

Use these answered entries as a reference point.
smiles code	Ratio IC50
CCOC(=O)C(=O)c1cc(-c2ccc(S(C)(=O)=O)cc2)n(-c2ccc(F)cc2)c1C	> 9
CCOC(=O)Cc1cc(-c2ccc(F)c(F)c2)n(-c2ccc(S(C)(=O)=O)cc2)c1C	> 19
CCOC(=O)C(=O)c1cc(-c2ccc(S(C)(=O)=O)cc2)n(-c2cccc(F)c2)c1C	> 100
CCOC(=O)C(=O)c1cc(-c2ccc(S(C)(=O)=O)cc2)n(-c2ccc(F)c(F)c2)c1C	> 12
CCOC(=O)Cc1cc(-c2ccc(S(C)(=O)=O)cc2)n(-c2cccc(F)c2)c1C	> 10000
CCOC(=O)Cc1cc(-c2ccc(S(C)(=O)=O)cc2)n(-c2ccc(OC)cc2)c1C	> 4000

Please turn your attention to the following entry.
Form: compound = `CCOC(=O)Cc1cc(-c2ccc(S(C)(=O)=O)cc2)n(-c2ccc(F)c(F)c2)c1C` ; Ratio IC50 = > 5000
